Test system: wild-type ZIKV (Ugandan MR766 strain) in Vero cells
Experiment: ZIKV cytopathic effect (CPE) inhibition qHTS assay, CellTiter-Glo readout
Type: cell-based, Zika virus
attribute_measured: Efficacy

Query (compound): "CN[C@H](CC(C)C)C(=O)N[C@H]1C(=O)N[C@@H](CC(N)=O)C(=O)N[C@H]2C(=O)N[C@H]3C(=O)N[C@H](C(=O)N[C@H](C(=O)O)c4cc(O)cc(O)c4-c4cc3ccc4O)[C@H](O[C@H]3C[C@](C)(N)[C@@H](O)[C@H](C)O3)c3ccc(c(Cl)c3)Oc3cc2cc(c3O[C@@H]2O[C@H](CO)[C@@H](O)[C@H](O)[C@H]2O[C@H]2C[C@](C)(NCc3ccc(-c4ccc(Cl)cc4)cc3)[C@@H](O)[C@H](C)O2)Oc2ccc(cc2Cl)[C@H]1O" ; field requested: Efficacy -25.057
